- Test system: HeLa
- ASSAY SUMMARY: Cytotoxicity against human HeLa cells after 48 hrs by MTT assay
- Assay type: functional, cell-based
Numbered stars: 1 amine (or outer) side, 2 acyl side, 3 side chain; on linkers, the order of the positions; unused ones are H or OH. Square brackets hold non-standard residues; d marks the D form. Peptide text beside a SMILES is read from it. X1 = CC(Cc1ccccc1)C(N[*:1])C(=O)[*:2]; X2 = CC(C)C(N[*:1])C(C)C(=O)[*:2]; dNMeV = CN[C@@H](C(=O)O)C(C)C; dHiv = CC(C)[C@@H](O)C(=O)O; Lac = C[C@H](O)C(=O)O
READOUT KIND: IC50 (µM)
Value expressed in µM; do not type the unit.

Problem: Observed IC50 on HeLa for CC(C)C1NC(=O)[C@@H]2CCCN2C(=O)C(C(C)Cc2ccccc2)NC(=O)[C@@H]2CCCN2C(=O)[C@@H](C(C)C)N(C)C(=O)[C@@H](C(C)C)OC(=O)[C@@H]2CCCN2C(=O)[C@H](C)OC(=O)C1C (some centres undefined) [DOLASTATIN 16] (cyclo([Lac]P[dHiv][dNMeV]P[X1]P[X2])) , please.
Result: 58

Problem: Query for HeLa: what IC50 does the record show for CC(=O)O[C@H]1C(=O)[C@@]2(C)[C@H]([C@H](OC(=O)c3ccccc3)[C@]3(O)C[C@H](OC(=O)[C@H](O)[C@@H](NC(=O)c4ccccc4)c4ccccc4)C(C)=C1C3(C)C)[C@]1(OC(C)=O)CO[C@@H]1C[C@@H]2O [PACLITAXEL] ?
Result: 0.0026

Problem: Test system HeLa; read-out IC50; what value for C#CCCC[C@H]1OC(=O)[C@H](C(C)C)N(C)C(=O)[C@@H]2CCCN2C(=O)[C@H]([C@@H](C)CC)OC(=O)[C@H](C(C)C)N(C)C(=O)[C@H](C(C)C)NC(=O)[C@H]1C [VERAGUAMIDE C] ?
Result: 6.1

Problem: Reported IC50 for HeLa, given C#CCCC[C@H]1OC(=O)[C@H](C(C)C)N(C)C(=O)[C@@H]2CCCN2C(=O)[C@H](Cc2ccccc2)OC(=O)[C@H](C(C)C)N(C)C(=O)[C@H](C(C)C)NC(=O)[C@H]1C [VERAGUAMIDE F] ?
Result: 49

From: ChEMBL document CHEMBL1781949
